- MEASUREMENT_CONTEXT: in isobutyl acetate, 306.43 K
MEASURED_PROPERTY: solubility (mole fraction)

STRUCTURE_AS_SMILES | NUMERIC_RESULT
Cc1ccc(C(=O)O)cc1 | 0.0356

====

- MEASUREMENT_CONTEXT: in isobutyl acetate, 312.7 K

STRUCTURE_AS_SMILES | solubility (mole fraction)
Cc1ccc(C(=O)O)cc1 | 0.0434

====

- MEASUREMENT_CONTEXT: in isobutyl acetate, 333.91 K

STRUCTURE_AS_SMILES | solubility (mole fraction)
Cc1ccc(C(=O)O)cc1 | 0.0774

====

- MEASUREMENT_CONTEXT: in isobutyl acetate, 309.58 K

STRUCTURE_AS_SMILES | solubility (mole fraction)
O=C(O)c1ccccc1C(=O)O | 0.0016

====

- MEASUREMENT_CONTEXT: in isobutyl acetate, 328.15 K
# solubility (mole fraction) annotations
MEASURED_PROPERTY: solubility (mole fraction)

STRUCTURE_AS_SMILES | RESULT
O=C(O)c1ccc(C(=O)O)cc1 | 5.78e-05
O=C(O)c1cccc(C(=O)O)c1 | 0.000691

====

- MEASUREMENT_CONTEXT: in isobutyl acetate, 336.03 K

STRUCTURE_AS_SMILES | solubility (mole fraction)
O=C(O)c1ccccc1 | 0.338

====

# solubility (mole fraction) annotations
- MEASUREMENT_CONTEXT: in isobutyl acetate, 343.15 K

STRUCTURE_AS_SMILES | solubility (mole fraction)
O=C(O)c1ccc(C(=O)O)cc1 | 8.91e-05
O=C(O)c1cccc(C(=O)O)c1 | 0.00166

====

- MEASUREMENT_CONTEXT: in isobutyl acetate, 343.67 K
MEASURED_PROPERTY: solubility (mole fraction)

STRUCTURE_AS_SMILES | MEASURED_PROPERTY | NUMERIC_RESULT
O=C(O)c1ccccc1 | solubility (mole fraction) | 0.399

====

- MEASUREMENT_CONTEXT: in isobutyl acetate, 312.72 K

STRUCTURE_AS_SMILES | solubility (mole fraction)
O=C(O)c1ccccc1C(=O)O | 0.0022

====

- MEASUREMENT_CONTEXT: in isobutyl acetate, 331.86 K
MEASURED_PROPERTY: solubility (mole fraction)

STRUCTURE_AS_SMILES | RESULT
O=C(O)c1ccccc1C(=O)O | 0.0037

====

- MEASUREMENT_CONTEXT: in isobutyl acetate, 341.07 K
MEASURED_PROPERTY: solubility (mole fraction)

STRUCTURE_AS_SMILES | NUMERIC_RESULT
Cc1ccc(C(=O)O)cc1 | 0.0918

====

- MEASUREMENT_CONTEXT: in isobutyl acetate, 303.04 K
MEASURED_PROPERTY: solubility (mole fraction)

STRUCTURE_AS_SMILES | NUMERIC_RESULT
Cc1ccc(C(=O)O)cc1 | 0.0338

====

- MEASUREMENT_CONTEXT: in isobutyl acetate, 315.36 K

STRUCTURE_AS_SMILES | solubility (mole fraction)
Cc1ccc(C(=O)O)cc1 | 0.0475

====

- MEASUREMENT_CONTEXT: in isobutyl acetate, 342.68 K

STRUCTURE_AS_SMILES | solubility (mole fraction)
Cc1ccc(C(=O)O)cc1 | 0.0954

====

- MEASUREMENT_CONTEXT: in isobutyl acetate, 329.67 K

STRUCTURE_AS_SMILES | solubility (mole fraction)
Cc1ccc(C(=O)O)cc1 | 0.0692

====

- MEASUREMENT_CONTEXT: in isobutyl acetate, 300.68 K

STRUCTURE_AS_SMILES | solubility (mole fraction)
O=C(O)c1ccccc1C(=O)O | 0.0011

====

- MEASUREMENT_CONTEXT: in isobutyl acetate, 338.76 K

STRUCTURE_AS_SMILES | solubility (mole fraction)
O=C(O)c1ccccc1 | 0.358

====

- MEASUREMENT_CONTEXT: in isobutyl acetate, 333.15 K
# solubility (mole fraction) annotations

STRUCTURE_AS_SMILES | solubility (mole fraction)
O=C(O)c1ccc(C(=O)O)cc1 | 7.07e-05
O=C(O)c1cccc(C(=O)O)c1 | 0.000917

====

- MEASUREMENT_CONTEXT: in isobutyl acetate, 337.33 K
MEASURED_PROPERTY: solubility (mole fraction)

STRUCTURE_AS_SMILES | MEASURED_PROPERTY | NUMERIC_RESULT
O=C(O)c1ccccc1 | solubility (mole fraction) | 0.349

====

- MEASUREMENT_CONTEXT: in isobutyl acetate, 313.61 K

STRUCTURE_AS_SMILES | solubility (mole fraction)
O=C(O)c1ccccc1 | 0.208

====

- MEASUREMENT_CONTEXT: in isobutyl acetate, 328.98 K
MEASURED_PROPERTY: solubility (mole fraction)

STRUCTURE_AS_SMILES | NUMERIC_RESULT
O=C(O)c1ccccc1 | 0.293

====

- MEASUREMENT_CONTEXT: in isobutyl acetate, 344.69 K

STRUCTURE_AS_SMILES | solubility (mole fraction)
Cc1ccc(C(=O)O)cc1 | 0.0994

====

- MEASUREMENT_CONTEXT: in isobutyl acetate, 339.37 K

STRUCTURE_AS_SMILES | solubility (mole fraction)
O=C(O)c1ccccc1 | 0.362

====

- MEASUREMENT_CONTEXT: in isobutyl acetate, 302.46 K

STRUCTURE_AS_SMILES | solubility (mole fraction)
O=C(O)c1ccccc1 | 0.149

====

- MEASUREMENT_CONTEXT: in isobutyl acetate, 341.48 K

STRUCTURE_AS_SMILES | solubility (mole fraction)
O=C(O)c1ccccc1 | 0.379

====

- MEASUREMENT_CONTEXT: in isobutyl acetate, 353.15 K

STRUCTURE_AS_SMILES | solubility (mole fraction)
O=C(O)c1cccc(C(=O)O)c1 | 0.00221

====

- MEASUREMENT_CONTEXT: in isobutyl acetate, 323.15 K
# solubility (mole fraction) annotations
MEASURED_PROPERTY: solubility (mole fraction)

STRUCTURE_AS_SMILES | MEASURED_PROPERTY | NUMERIC_RESULT
O=C(O)c1ccc(C(=O)O)cc1 | solubility (mole fraction) | 3.86e-05
O=C(O)c1cccc(C(=O)O)c1 | solubility (mole fraction) | 0.000507

====

- MEASUREMENT_CONTEXT: in isobutyl acetate, 339.86 K
MEASURED_PROPERTY: solubility (mole fraction)

STRUCTURE_AS_SMILES | MEASURED_PROPERTY | NUMERIC_RESULT
O=C(O)c1ccccc1 | solubility (mole fraction) | 0.369

====

# solubility (mole fraction) annotations
- MEASUREMENT_CONTEXT: in isobutyl acetate, 342.69 K
MEASURED_PROPERTY: solubility (mole fraction)

STRUCTURE_AS_SMILES | MEASURED_PROPERTY | NUMERIC_RESULT
O=C(O)c1ccccc1C(=O)O | solubility (mole fraction) | 0.0077
O=C(O)c1ccccc1 | solubility (mole fraction) | 0.39

====

- MEASUREMENT_CONTEXT: in isobutyl acetate, 307.34 K

STRUCTURE_AS_SMILES | solubility (mole fraction)
O=C(O)c1ccccc1 | 0.178

====

- MEASUREMENT_CONTEXT: in isobutyl acetate, 340.04 K

STRUCTURE_AS_SMILES | solubility (mole fraction)
O=C(O)c1ccccc1C(=O)O | 0.0062

====

- MEASUREMENT_CONTEXT: in isobutyl acetate, 305.15 K
MEASURED_PROPERTY: solubility (mole fraction)

STRUCTURE_AS_SMILES | NUMERIC_RESULT
O=C(O)c1ccc(C(=O)O)cc1 | 2.38e-05

====

- MEASUREMENT_CONTEXT: in isobutyl acetate, 337.49 K
MEASURED_PROPERTY: solubility (mole fraction)

STRUCTURE_AS_SMILES | RESULT
Cc1ccc(C(=O)O)cc1 | 0.0848

====

- MEASUREMENT_CONTEXT: in isobutyl acetate, 334.34 K

STRUCTURE_AS_SMILES | solubility (mole fraction)
O=C(O)c1ccccc1 | 0.325

====

- MEASUREMENT_CONTEXT: in isobutyl acetate, 326.85 K

STRUCTURE_AS_SMILES | solubility (mole fraction)
O=C(O)c1ccccc1C(=O)O | 0.0032

====

- MEASUREMENT_CONTEXT: in isobutyl acetate, 302.37 K
MEASURED_PROPERTY: solubility (mole fraction)

STRUCTURE_AS_SMILES | MEASURED_PROPERTY | NUMERIC_RESULT
O=C(O)c1ccccc1C(=O)O | solubility (mole fraction) | 0.0012

Just for reference, BigSolDB 2.1 is where these values come from.
